Data provenance: PubChem BioAssay AID1845212

test system: NCI-H719 tumor spheroids, viability; test: Anticancer human tumor NCI-H719 cell line growth inhibition; conditions: second compound 94.9 pM; first compound 0.0316 µM; stronger effect = lower value; spheroids with HUVEC and MSC;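 further: spheroids exposed to compounds for seven days; percent viability relative to DMSO vehicle control as 100%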
Overview of reported viability, T/C across a group of compounds:
Use % as the unit, but write only the number.

Take a look at these entries with their results.
compound	quantitative.readout
[2H]c1nc(C)nc([2H])c1-c1cc(NC[C@@H](C)c2cccc3c(C(=O)NC)ccnc23)ncn1 + COc1cc2c(cc1O)CCNC21CSC2c3c(OC(C)=O)c(C)c4c(c3C(COC1=O)N1C(O)C3Cc5cc(C)c(OC)c(O)c5C(C21)N3C)OCO4	20.4
CC(C)n1c(=O)n(C)c2cnc3cc(F)c(-c4ccc(OCCCN5CCCCC5)nc4)cc3c21 + COc1cc2c(cc1O)CCNC21CSC2c3c(OC(C)=O)c(C)c4c(c3C(COC1=O)N1C(O)C3Cc5cc(C)c(OC)c(O)c5C(C21)N3C)OCO4	40.8
Cc1cc(C)c(CNC(=O)c2cc(-c3ccc(CN4CCOCC4)cc3)cc3c2cnn3C2CCCC2)c(=O)[nH]1 + COc1cc2c(cc1O)CCNC21CSC2c3c(OC(C)=O)c(C)c4c(c3C(COC1=O)N1C(O)C3Cc5cc(C)c(OC)c(O)c5C(C21)N3C)OCO4	24

stdin: Which viability, T/C is reported for this compound? COc1cc(C)[nH]c(=O)c1CN1CCc2c(Cl)cc(C(OC)C3COC3)c(Cl)c2C1=O (centres undefined) + COc1cc2c(cc1O)CCNC21CSC2c3c(OC(C)=O)c(C)c4c(c3C(COC1=O)N1C(O)C3Cc5cc(C)c(OC)c(O)c5C(C21)N3C)OCO4
stdout: 39.9
